Would you mind telling me the reported Stabilty of each entry?
assay_summary: Metabolic stability in human liver microsomes assessed as compound remaining at 1 uM by LC-MS/MS analysis; further: time not given here
Type: ADME, Microsome
study_conditions: microsomes, 1 µM
Numeric answer only, unit % assumed.

Inquiry: State the recorded Stabilty for this entry: CS(=O)(=O)NC(=O)NCc1cc(-c2ccc(Br)cc2)oc1-c1ccncc1
Reply text: 98

Inquiry: State the recorded Stabilty for this entry: CS(=O)(=O)NC(=O)OCc1cn(-c2ccc(Cl)cc2)nc1-c1ccncc1
Reply text: 97

Inquiry: State the recorded Stabilty for this entry: CS(=O)(=O)NC(=O)CCc1cn(-c2ccc(Br)cc2)nc1-c1ccc(Cl)cc1
Reply text: 90

Inquiry: State the recorded Stabilty for this entry: CS(=O)(=O)NC(=O)/C=C/c1cn(-c2ccc(Cl)cc2)nc1-c1ccncc1
Reply text: 88

* * *

assay_summary: Thermodynamic solubility of compound at pH 7.4 aqueous phosphate buffer
parameter: solubility thermodynamic (µM)
Numeric answer only, unit µM assumed.

Inquiry: State the recorded solubility thermodynamic for this entry: CS(=O)(=O)NC(=O)CCc1cc(-c2ccc(Cl)cc2)nn1-c1ccc(F)cc1
Reply text: 195

Inquiry: State the recorded solubility thermodynamic for this entry: CS(=O)(=O)NC(=O)CCc1cn(-c2ccc(C(F)(F)F)nc2)nc1-c1ccc(Cl)cc1
Reply text: 90

Inquiry: State the recorded solubility thermodynamic for this entry: CS(=O)(=O)NC(=O)CCc1cn(-c2ccc(Br)cc2)nc1-c1cccnc1
Reply text: 200

FYI, the data here is from ChEMBL document CHEMBL4842359.
